Test system: NCI-H226
Experiment: NCI tumour cell line growth inhibition, 48 h
The source made the active and inactive calls. Cut-off read from the data, not from the text of the source: active = GI50 up to about 1.1 µM and inactive = higher.
Please respond with reported GI50 for every item in the list.

molecule | GI50
C[C@]12CC[C@H]3[C@@H](CC=C4C[C@@H](O)CC[C@@]43C)[C@@H]1CC[C@@H]2N(CCO)CCO | > 100 µM (inactive)
[N-]=[N+]=NC1=C(N=[N+]=[N-])c2cccc3cccc(c23)C1=O | > 100 µM (inactive)
CC(=O)N1CCn2c1nc1cc(Cl)ccc12 | 94.8 µM (inactive)
COc1ccc(C2SC(=N)Nc3c2c(C)nn3C(=O)c2ccc(Cl)cc2)cc1 (stereo not drawn) | > 10 µM (inactive)
Sc1nnc(/C=C/c2ccc(Cl)c(Cl)c2)[nH]1 | > 100 µM (inactive)

Please supply GI50 for each of the following items, keeping them in order.
1. CC1(C)CC2C(/C1=N/O)C1(C)CCCC2(C)C1O (stereo not drawn)
2. CCO/C=N/C1=C(C#N)SC2=N/C(=C\c3ccccc3)C(=O)N21
3. O=[N+]([O-])c1cccc(/C=N/NC2=CS(=O)(=O)C=C2)c1

1: > 100 µM (inactive); 2: 97.3 µM (inactive); 3: > 100 µM (inactive)

###

Test system: MDA-MB-231
Experiment: NCI tumour cell line growth inhibition, 48 h
The source made the active and inactive calls. Rule as the data show it: active = GI50 up to about 1.1 µM and inactive = higher.
Hi there, use one of these labels in your reply, thanks! active, inactive

Previously resolved entries follow.
molecule | label class
CC(=O)/C(=C\I)c1ccccc1 | inactive
CN(CCNCc1cn(C)c2c1ccc1ccccc12)CCNCc1cn(C)c2c1ccc1ccccc12 | inactive
C[C@H](CCC(=O)NCCS(=O)(=O)O)[C@H]1CC[C@H]2[C@@H]3CC[C@@H]4C[C@H](O)CC[C@]4(C)[C@H]3CC[C@]12C | inactive

Now turn to the next molecule.
Recorded test outcome, item COC1/C=C\C=C(/C)C(=O)NC2=CC(=O)C(O)=C(CC(C)CC(OC)C(O)C(C)/C=C(\C)C1OC(N)=O)C2=O (centres undefined)
active

###

Test system: HOP-18
Test: NCI tumour cell line growth inhibition, 48 h
Activity calls are given as the source filed them. Cut-off read from the data, not from the text of the source: active = GI50 up to about 1.1 µM and inactive = higher.
Hi there, use one of these labels in your reply, thanks! label 1 = active, label 0 = inactive

Previously resolved entries follow.
compound | label class
c1ccc2c(c1)c1ccccc1c1n[se]nc21 | label 1
COC(=O)/C1=C/C2CC(/C=C(/c3ccccc3)C(=O)O1)C2 | label 0
O=[N+]([O-])c1ccc(N=P(c2ccccc2)(c2ccccc2)c2ccccc2)n2nnnc12 | label 0
COc1ccc2c(c1)[n+]([O-])c(/C(C)=N/NC(=O)c1ccccc1O)c(C)[n+]2[O-] | label 0
O=C(O)c1ccccc1C(=O)c1ccco1 | label 0

Recorded test outcome, item Cc1cn(C2CC(n3cncn3)C(C(C)O)O2)c(=O)[nH]c1=O (stereo not drawn)
label 0

Recorded test outcome, item "COc1cc2c(oc(=O)c3c4occc4cc(OC)c23)c2cccc(O)c12"
label 0

###

Please respond with reported GI50 for every item in the list.
Test system: U-251
Assay: NCI tumour cell line growth inhibition, 48 h
Calls of active or inactive are those of the source. No stated cut-off is given here; in the data, active = GI50 up to about 1.1 µM and inactive = higher.

Worked cases, answers included:
compound | GI50
O=S1(=O)c2cnccc2N=C(NCc2ccccc2)N1c1ccccc1 | 98.2 µM (inactive)
CN(C)CCCNC(=O)c1cc2/c(=C\c3ccc(N(C)C)cc3)c3ccccc3n2[n+]1C | 22.4 µM (inactive)
Cc1nnc2sc(NN)nn12 | > 100 µM (inactive)
COC(=O)C1CC2(C)C=CC1N(C(=O)OCc1ccccc1)C2 (stereo not given) | 58.1 µM (inactive)

Find the measured GI50: item "COc1ccc(OC)c(NC(=O)C(=O)Nn2c(S)nc3ccccc3c2=O)c1" , target or system U-251.
> 100 µM (inactive)

Value source: ChEMBL document CHEMBL1201862
